Biological target: cAMPinG1 (Mus musculus, UniProt Q9DBC7, DEL187-189)
Construct: PKA-R1α residues 108-186 and 190-381, N-terminus removed, cpGFP (from GCaMP6f) inserted in the β4–β5 loop replacing 187-189, engineered linkers/cpGFP, N-terminal RSET
Sequence (Q9DBC7 108-186, stated change not applied): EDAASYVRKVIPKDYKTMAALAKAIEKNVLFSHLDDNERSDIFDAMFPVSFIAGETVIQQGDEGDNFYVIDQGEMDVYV
Sequence (Q9DBC7 190-381, stated change not applied): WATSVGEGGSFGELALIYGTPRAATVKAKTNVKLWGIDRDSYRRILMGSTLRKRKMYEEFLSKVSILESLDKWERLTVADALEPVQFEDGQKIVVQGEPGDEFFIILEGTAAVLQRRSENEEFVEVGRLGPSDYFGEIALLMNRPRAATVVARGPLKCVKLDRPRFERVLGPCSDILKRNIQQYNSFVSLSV
Test: sensor fluorescence titration in HEK293T lysate, Hill fit

smiles structure: Nc1nc2c(ncn2[C@@H]2O[C@@H]3COP(=O)(O)O[C@H]3[C@H]2O)c(=O)[nH]1
Kd: 12.2 µM

Values from paper PMC11093745
